assay: in vitro; settings: dog, MDCK
Description: Apparent permeability in MDCKII-LE cells incubated for 1.5 hrs
Returns: string. Value is YES if measured Papp at 1.5 h is below 10 ×10⁻⁶ cm/s, and NO if it is greater than or equal to it.

Data request: Problem: For the compound CCOc1cccnc1Oc1cncc(-c2ncc(C(=O)N[C@H]3CCNC3)cn2)c1 , is Papp at 1.5 h under 10 ×10⁻⁶ cm/s?
Data returned: YES

Data request: Now the compound CCOc1cccnc1Oc1cncc(-c2ncc(C(=O)N[C@H]3CCOC3)cn2)c1 [PF-06865571]
Data returned: NO

Data request: Now the compound CCOc1cccnc1Oc1cncc(-c2ncc(C(=O)N[C@@H]3CNCCC3(F)F)cn2)c1
Data returned: NO

Data request: Now the compound CCOc1cccnc1Oc1cncc(-c2ncc(C(=O)N[C@@H]3CNC[C@H](F)C3)cn2)c1 (racemic)
Data returned: NO

Data request: Now the compound CCOc1cccnc1Oc1cncc(-c2ncc(C(=O)NC3CCNCC3)cn2)c1
Data returned: YES

Data request: Now the compound CCOc1cccnc1Oc1cncc(-c2ncc(C(=O)N[C@H]3CC[C@@H](C(F)(F)F)NC3)cn2)c1 (relative stereo)
Data returned: NO

Data request: Now the compound CCOc1cccnc1Oc1cncc(-c2ncc(C(=O)N[C@@H]3CNC[C@@H](F)C3)cn2)c1
Data returned: YES

Data request: Now the compound CCOc1cccnc1Oc1cncc(-c2ncc(C(=O)N[C@@H]3CNCC[C@@H]3F)cn2)c1
Data returned: YES

Data request: Now the compound CCOc1cccnc1Oc1cncc(-c2ncc(C(=O)N[C@H]3CNC[C@H](F)C3)cn2)c1
Data returned: YES

Data request: Now the compound CCOc1cccnc1Oc1cncc(-c2ncc(C(=O)N[C@@H]3CNCC[C@H]3F)cn2)c1
Data returned: YES

Data request: Now the compound CCOc1cccnc1Oc1cncc(-c2ncc(C(=O)N[C@@H]3CCNC3)cn2)c1
Data returned: YES

Data request: Now the compound CCOc1cccnc1Oc1cncc(-c2ncc(C(=O)N[C@@H]3CNCC(F)(F)C3)cn2)c1
Data returned: NO

----------
experiment: physchem; conditions: octanol/aqueous buffer, pH 7.4
Provide the reported logD at 1 h of each item.
Answer with a bare number; do not write a unit.

Data request: Record request: logD at 1 h value, item CCOc1cccnc1Oc1cncc(-c2ncc(C(=O)N[C@@H]3CNCC[C@H]3F)cn2)c1
Data returned: 1.4

Data request: Now the compound CCOc1cccnc1Oc1cncc(-c2ncc(C(=O)N[C@H]3CC[C@@H](C(F)(F)F)NC3)cn2)c1 (relative stereo)
Data returned: 2.8

Data request: Now the compound CCOc1cccnc1Oc1cncc(-c2ncc(C(=O)NC3CCNCC3)cn2)c1
Data returned: -0.19

Data request: Now the compound CCOc1cccnc1Oc1cncc(-c2ncc(C(=O)N[C@@H]3CNCCC3(F)F)cn2)c1
Data returned: 1.8

Data request: Now the compound CCOc1cccnc1Oc1cncc(-c2ncc(C(=O)N[C@@H]3CNCC[C@@H]3F)cn2)c1
Data returned: 0.96

Data request: Now the compound CCOc1cccnc1Oc1cncc(-c2ncc(C(=O)N[C@H]3CCNC3)cn2)c1
Data returned: -0.9

Data request: Now the compound CCOc1cccnc1Oc1cncc(-c2ncc(C(=O)N[C@@H]3CNC[C@@H](F)C3)cn2)c1
Data returned: 1.4

Data request: Now the compound CCOc1cccnc1Oc1cncc(-c2ncc(C(=O)N[C@H]3CCOC3)cn2)c1
Data returned: 1.9

Data request: Now the compound CCOc1cccnc1Oc1cncc(-c2ncc(C(=O)N[C@@H]3CCNC3)cn2)c1
Data returned: -0.15

Data request: Now the compound CCOc1cccnc1Oc1cncc(-c2ncc(C(=O)N[C@@H]3CNC[C@H](F)C3)cn2)c1 (racemic)
Data returned: 1.7

Data request: Now the compound CCOc1cccnc1Oc1cncc(-c2ncc(C(=O)N[C@H]3CNC[C@H](F)C3)cn2)c1
Data returned: 1.3

Data request: Now the compound CCOc1cccnc1Oc1cncc(-c2ncc(C(=O)N[C@@H]3CNCC(F)(F)C3)cn2)c1
Data returned: 2.3

----------
experiment: Oral bioavailability in cynomolgus monkey; format: ADME, organism-based, Macaca fascicularis; details: in vivo
ATTRIBUTE MEASURED: bioavailability (%)
Quick reminder: number only, in %, skip the unit.

Data request: Record request: bioavailability value, item CCOc1cccnc1Oc1cncc(-c2ncc(C(=O)N[C@H]3CCOC3)cn2)c1
Data returned: 48

Data request: Now the molecule CCOc1cccnc1Oc1cncc(-c2ncc(C(=O)N[C@@H]3CNC[C@@H](F)C3)cn2)c1
Data returned: 21

----------
assay: Oral bioavailability in Wistar Han rat; format: ADME, organism-based; details: in vivo
Provide the reported bioavailability of each item.
Quick reminder: number only, in %, skip the unit.

Data request: Record request: bioavailability value, item CCOc1cccnc1Oc1cncc(-c2ncc(C(=O)N[C@@H]3CNC[C@@H](F)C3)cn2)c1
Data returned: 12

Data request: Now the compound CCOc1cccnc1Oc1cncc(-c2ncc(C(=O)N[C@H]3CCOC3)cn2)c1 [PF-06865571]
Data returned: 31

----------
experiment: Clearance in Wistar Han rat plasma at 1 mg/kg,iv; type: ADME, organism-based
ATTRIBUTE MEASURED: clearance (mL/min/kg)
Quick reminder: number only, in mL/min/kg, skip the unit.

Data request: Record request: clearance value, item CCOc1cccnc1Oc1cncc(-c2ncc(C(=O)N[C@@H]3CCNC3)cn2)c1
Data returned: 51

----------
assay: Renal clearance in po dosed Wistar Han rat; format: ADME, organism-based; settings: in vivo
ATTRIBUTE MEASURED: CL renal (mL/min/kg)
Quick reminder: number only, in mL/min/kg, skip the unit.

Data request: Record request: CL renal value, item CCOc1cccnc1Oc1cncc(-c2ncc(C(=O)N[C@@H]3CNC[C@@H](F)C3)cn2)c1
Data returned: 7.5

----------
Provide the reported pIC50 of each item.
Target: UniProt:Q96PD7
Sequence (Q96PD7 whole entry): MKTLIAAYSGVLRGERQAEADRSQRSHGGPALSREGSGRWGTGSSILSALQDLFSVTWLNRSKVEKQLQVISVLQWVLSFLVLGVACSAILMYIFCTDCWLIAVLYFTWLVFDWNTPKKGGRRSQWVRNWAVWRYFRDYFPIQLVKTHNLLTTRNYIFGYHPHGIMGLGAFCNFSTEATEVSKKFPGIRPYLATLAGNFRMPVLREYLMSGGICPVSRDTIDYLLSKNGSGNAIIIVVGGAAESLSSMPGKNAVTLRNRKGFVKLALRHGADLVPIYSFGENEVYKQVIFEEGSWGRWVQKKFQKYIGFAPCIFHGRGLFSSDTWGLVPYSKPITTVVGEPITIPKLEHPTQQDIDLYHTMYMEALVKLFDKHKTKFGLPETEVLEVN
Here pIC50 is given on a logarithmic scale as minus log10 of the concentration in mol/L.

Data request: Record request: pIC50 value, item CCOc1cccnc1Oc1cncc(-c2ncc(C(=O)N[C@H]3CCNC3)cn2)c1
Data returned: 6.30

Data request: Now the compound CCOc1cccnc1Oc1cncc(-c2ncc(C(=O)N[C@@H]3CNC[C@H](F)C3)cn2)c1 (racemic)
Data returned: 6.70

----------
assay: Half life of the compound in cynomolgus monkey at 1 mg/kg, iv; assay type: ADME, organism-based, Macaca fascicularis; details: in vivo
ATTRIBUTE MEASURED: half-life (h)
Quick reminder: number only, in h, skip the unit.

Data request: Record request: half-life value, item CCOc1cccnc1Oc1cncc(-c2ncc(C(=O)N[C@@H]3CNC[C@@H](F)C3)cn2)c1
Data returned: 1.4

----------
Target: Diacylglycerol O-acyltransferase 1 (Homo sapiens)
Sequence (O75907 whole entry): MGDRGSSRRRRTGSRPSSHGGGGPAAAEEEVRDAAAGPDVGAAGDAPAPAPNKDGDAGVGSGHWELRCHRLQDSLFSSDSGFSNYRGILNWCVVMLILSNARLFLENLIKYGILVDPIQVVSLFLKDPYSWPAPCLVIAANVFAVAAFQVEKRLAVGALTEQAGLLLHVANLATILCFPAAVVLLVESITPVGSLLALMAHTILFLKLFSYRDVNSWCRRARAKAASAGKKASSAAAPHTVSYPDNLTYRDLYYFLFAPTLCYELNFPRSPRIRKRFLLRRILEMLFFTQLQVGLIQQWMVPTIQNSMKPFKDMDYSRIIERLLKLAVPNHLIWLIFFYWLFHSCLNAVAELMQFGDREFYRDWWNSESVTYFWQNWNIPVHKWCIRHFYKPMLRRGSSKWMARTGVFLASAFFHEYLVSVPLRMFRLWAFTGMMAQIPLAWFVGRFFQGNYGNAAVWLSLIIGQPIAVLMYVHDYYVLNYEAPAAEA
pIC50: −log10 of the molar value.
ATTRIBUTE MEASURED: pIC50

Data request: Record request: pIC50 value, item CCOc1cccnc1Oc1cncc(-c2ncc(C(=O)N[C@@H]3CNC[C@@H](F)C3)cn2)c1
Data returned: < 4.30
